test: amyloid nucleation score (Sup35N fusion, yeast selection) (log enrichment); library NNK3; higher = more nucleation; inactive = no reads after selection;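 note: zero at mode of non-aggregating sequences after 7 days selection at 30°C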
measurement.name: amyloid nucleation score

[
  {
    "substance": "SRLMRKRISA",
    "amyloid nucleation score": "inactive"
  },
  {
    "substance": "LDTVTCNSLETAFGSFKNWL",
    "amyloid nucleation score": "inactive"
  },
  {
    "substance": "RFSSSSQPFYSFAIVRR",
    "amyloid nucleation score": "inactive"
  },
  {
    "substance": "TVRDTEFLWFGDWLRRGSLS",
    "amyloid nucleation score": -0.034
  },
  {
    "substance": "CVNKFLSVPSIDSEDFCYLV",
    "amyloid nucleation score": "inactive"
  }
]

Qu. Find the recorded amyloid nucleation score belonging to `FTTRFTFTIP` and report it.
Ans. 1.24

Qu. Find the recorded amyloid nucleation score belonging to `VVSDTKYVVVEWYTCGQSSD` and report it.
Ans. inactive

Qu. Find the recorded amyloid nucleation score belonging to `FSCIKTRMVGYSLRLNQFVD` and report it.
Ans. inactive

Qu. Find the recorded amyloid nucleation score belonging to `SLRPMLYTSYSS` and report it.
Ans. 0.914

Qu. Find the recorded amyloid nucleation score belonging to `LSGMMFAGPFLTCSLDCWML` and report it.
Ans. inactive

====

test: amyloid nucleation score (Sup35N fusion, yeast selection) (log enrichment); library NNK2; higher = more nucleation; inactive = no reads after selection

[
  {
    "residues": "WVDNRWEVSLSWAGYTIF",
    "amyloid nucleation score": "inactive"
  },
  {
    "residues": "TDWGTLARMGLASLC",
    "amyloid nucleation score": "inactive"
  },
  {
    "residues": "LSTANSNSRAVFIIKMRGLL",
    "amyloid nucleation score": "inactive"
  }
]

====

test: amyloid nucleation score (Sup35N fusion, yeast selection) (log enrichment); library NNK2; higher = more nucleation; inactive = no reads after selection
Rule: amyloid nucleation score of 0.7 or more gives true (1); anything lower gives false (0).

[
  {
    "substance": "TLVCSKAFKYVGV",
    "label.value": "false (0)"
  },
  {
    "substance": "EDIWEMRSLHLWLSCSGWTD",
    "label.value": "true (1)"
  },
  {
    "substance": "WMRSIWLSQHFLS",
    "label.value": "false (0)"
  },
  {
    "substance": "GQGDYMRFSDNAGGPYSKLE",
    "label.value": "true (1)"
  },
  {
    "substance": "RCVSRTR",
    "label.value": "false (0)"
  }
]

Field: next substance
Qu. amyloid nucleation score >= 0.7 for `LVWRDV` ?
Ans. true (1)

====

test: amyloid nucleation score (Sup35N fusion, yeast selection) (log enrichment); library NNK1; higher = more nucleation; inactive = no reads after selection
Rule: amyloid nucleation score of 0.3 or more gives true; anything lower gives false.

Take a look at these entries with their results.
[
  {
    "residues": "SHEGTGLGMGAVG",
    "label.value": "false"
  },
  {
    "residues": "CSRANRKGECG",
    "label.value": "false"
  }
]

Field: next sequence
Qu. amyloid nucleation score >= 0.3 for `LYESYDMVEKQDRTWSKGSS` ?
Ans. false

====

test: amyloid nucleation score (Sup35N fusion, yeast selection) (log enrichment); library NNK1; higher = more nucleation; inactive = no reads after selection
measurement.name: amyloid nucleation score
Provide a numeric answer; units are not to be included.

In the examples that follow, each entry is paired with its recorded amyloid nucleation score.
[
  {
    "substance": "RCKELDCSPDSGITVTRSLI",
    "measurement.name": "amyloid nucleation score",
    "meas.value": 1.12
  },
  {
    "substance": "CPDLGYACWYIINRIPSTWC",
    "measurement.name": "amyloid nucleation score",
    "meas.value": -1.3
  }
]

Qu. Find the recorded amyloid nucleation score belonging to `RFSITSGNYFNN` and report it.
Ans. -0.971

Qu. Find the recorded amyloid nucleation score belonging to `VMAMSMLYSLMRNGKKLHFK` and report it.
Ans. 1.67

Qu. Find the recorded amyloid nucleation score belonging to `GRYWSCEATRLCKYFGCTMR` and report it.
Ans. -0.212

Qu. Find the recorded amyloid nucleation score belonging to `TNSTISYFARFVVIWLGKIA` and report it.
Ans. -0.488

====

Measured amyloid nucleation score of individual entries
test: amyloid nucleation score (Sup35N fusion, yeast selection) (log enrichment); library NNK2; higher = more nucleation; inactive = no reads after selection
Provide a numeric answer; units are not to be included.

In the examples that follow, each entry is paired with its recorded amyloid nucleation score.
[
  {
    "residues": "PIIIDDLMYLGDVDLTMFGE",
    "amyloid nucleation score": -0.234
  },
  {
    "residues": "TTSQFGLGGICPDNSTGLLA",
    "amyloid nucleation score": -1.31
  },
  {
    "residues": "FLFLCGTDTFASRNPGRGKG",
    "amyloid nucleation score": 0.269
  },
  {
    "residues": "LKGCQDLLLVDSGGSTTWYG",
    "amyloid nucleation score": -0.836
  },
  {
    "residues": "IYSGETYKTWLFHGINV",
    "amyloid nucleation score": -1.4
  }
]

Qu. Find the recorded amyloid nucleation score belonging to `WVTWLISCCYNRLEQGCLAF` and report it.
Ans. 0.097

Qu. Find the recorded amyloid nucleation score belonging to `SLNDKFSLMGLICFWWWCLV` and report it.
Ans. -0.184

====

test: amyloid nucleation score (Sup35N fusion, yeast selection) (log enrichment); library NNK1; higher = more nucleation; inactive = no reads after selection
Rule: amyloid nucleation score of 1 or more gives 1; anything lower gives -1.

Take a look at these entries with their results.
[
  {
    "residues": "FINVAFGCVYVRTNCLRMEG",
    "label.value": 1
  },
  {
    "residues": "LYVMRKSDMMLDFRNAANVG",
    "label.value": -1
  },
  {
    "residues": "DFLMMSVLHHNNVSYS",
    "label.value": 1
  },
  {
    "residues": "LRKSHYFTY",
    "label.value": -1
  },
  {
    "residues": "FTCRFFVCFGLCGDHEHSPI",
    "label.value": 1
  },
  {
    "residues": "VNSNGTPCSMGIHMSGSYSP",
    "label.value": -1
  }
]

Qu. amyloid nucleation score >= 1 for `VLILELDGS` ?
Ans. -1

Qu. amyloid nucleation score >= 1 for `VCLVDSSWGW` ?
Ans. 1

Qu. amyloid nucleation score >= 1 for `LVKLIWRISAWHSWFVSR` ?
Ans. 1

Qu. amyloid nucleation score >= 1 for `QGIAACSAGSLDYVYGRWKG` ?
Ans. 1

Qu. amyloid nucleation score >= 1 for `NKGALRLRFYGIFEVECVVE` ?
Ans. 1

Qu. amyloid nucleation score >= 1 for `WSRMGLAILRFFKYLS` ?
Ans. -1

Qu. amyloid nucleation score >= 1 for `KLVIETSPCVRSHVSLVQKR` ?
Ans. -1

Qu. amyloid nucleation score >= 1 for `KYPYLYLPIRMLNRQHARVG` ?
Ans. -1

Qu. amyloid nucleation score >= 1 for `GKNWSFLTSYFCWFTLKIH` ?
Ans. 1

Qu. amyloid nucleation score >= 1 for `GVSQNKCMPVWCVR` ?
Ans. -1

====

test: amyloid nucleation score (Sup35N fusion, yeast selection) (log enrichment); library NNK3; higher = more nucleation; inactive = no reads after selection
measurement.name: amyloid nucleation score

In the examples that follow, each entry is paired with its recorded amyloid nucleation score.
[
  {
    "substance": "EYPFFIKSQGR",
    "amyloid nucleation score": "inactive"
  },
  {
    "substance": "KIHCAESATVVLWVRVGDCR",
    "amyloid nucleation score": "inactive"
  },
  {
    "substance": "CADVTTTHGGLYVGPSSTAT",
    "amyloid nucleation score": "inactive"
  },
  {
    "substance": "ACESCSFTSWRTYLCSKVRT",
    "amyloid nucleation score": -0.172
  },
  {
    "substance": "NALRFNLWMLNTVKVEYRSD",
    "amyloid nucleation score": 2.15
  },
  {
    "substance": "TCSKVFQYG",
    "amyloid nucleation score": "inactive"
  },
  {
    "substance": "DCMSHLLF",
    "amyloid nucleation score": "inactive"
  },
  {
    "substance": "YAYVQRVYLACSINLMCLWY",
    "amyloid nucleation score": "inactive"
  },
  {
    "substance": "NKVVMGNLWGPPVFDRCDKG",
    "amyloid nucleation score": "inactive"
  },
  {
    "substance": "IYHSYNESVCTYSNHPSRM",
    "amyloid nucleation score": "inactive"
  }
]

Qu. Find the recorded amyloid nucleation score belonging to `GRIEKVVRNA` and report it.
Ans. inactive

Qu. Find the recorded amyloid nucleation score belonging to `CNVNTLIFGRESNSSEHKHW` and report it.
Ans. 1.83

Qu. Find the recorded amyloid nucleation score belonging to `HPHTHVR` and report it.
Ans. inactive

Qu. Find the recorded amyloid nucleation score belonging to `KRPWTVFFVFFIGFATLL` and report it.
Ans. 1.15

Qu. Find the recorded amyloid nucleation score belonging to `SWYRVNYTLPC` and report it.
Ans. inactive

Qu. Find the recorded amyloid nucleation score belonging to `AITGFNRKVDYLGSGECVEH` and report it.
Ans. inactive

Qu. Find the recorded amyloid nucleation score belonging to `LLGSFEGLIALYSGGWMAYR` and report it.
Ans. -0.108

Qu. Find the recorded amyloid nucleation score belonging to `LYLKYLELEILRPYGAFICH` and report it.
Ans. inactive

Qu. Find the recorded amyloid nucleation score belonging to `PLSNNKVVWWYYL` and report it.
Ans. inactive

Qu. Find the recorded amyloid nucleation score belonging to `MTLRRKLSMTAV` and report it.
Ans. inactive

Qu. Find the recorded amyloid nucleation score belonging to `ASMLLDKYFANLYELVLRVF` and report it.
Ans. inactive

Qu. Find the recorded amyloid nucleation score belonging to `LIFWRPIGDEHYLWPLPFYL` and report it.
Ans. inactive

Qu. Find the recorded amyloid nucleation score belonging to `THFYWADAVVMPAYRVIRRF` and report it.
Ans. inactive

Qu. Find the recorded amyloid nucleation score belonging to `SFYWMHMSAMIEYDPFTYGA` and report it.
Ans. inactive

Qu. Find the recorded amyloid nucleation score belonging to `KKYVETVSS` and report it.
Ans. inactive

Qu. Find the recorded amyloid nucleation score belonging to `FKSLLSRISHFKFASGWYVH` and report it.
Ans. inactive
